Measured values drawn from the Human Domainome abundance scans (Beltran et al. 2025) for this set.

B1: Chromodomain-helicase-DNA-binding protein 3, residues 374 to 426; numbered along this chain, Q12873 (parent)
chain: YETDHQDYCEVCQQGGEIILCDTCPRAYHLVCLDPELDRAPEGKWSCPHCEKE

variants of: B1; experiment: abundance fitness (aPCA) (normalised: wild type 0, dead -1); higher = more abundant; growth selection in yeast, the domain comes from the species named; settings: Homo sapiens
Mark N for abundance fitness values under -0.2, and Y for everything at or above.

{"variantNotation": "P25S", "labelClass": "Y"}
{"variantNotation": "I18S", "labelClass": "N"}
{"variantNotation": "R39F", "labelClass": "N"}
{"variantNotation": "L20F", "labelClass": "Y"}
{"variantNotation": "D7G", "labelClass": "Y"}
{"variantNotation": "I19D", "labelClass": "N"}
{"variantNotation": "E2V", "labelClass": "N"}
{"variantNotation": "I18A", "labelClass": "Y"}
{"variantNotation": "E10T", "labelClass": "Y"}
{"variantNotation": "T3A", "labelClass": "Y"}
{"variantNotation": "Q14C", "labelClass": "Y"}
{"variantNotation": "I18C", "labelClass": "N"}
{"variantNotation": "D7A", "labelClass": "Y"}
{"variantNotation": "P35W", "labelClass": "Y"}
